Entries and their measured MIC follow.
Test system: Enterococcus faecalis
Assay: Antibacterial activity against Enterococcus faecalis 7 by broth microdilution method
Type: functional
Lab book: enter the figure in µg/mL, no units written.

{"molecular.string": "CC(C)CC(=O)NC(=O)[C@@H]1CCCN1C(=O)[C@H](CC1CCCC1)CN(O)C=O", "result.type": "MIC", "number": 2}
{"molecular.string": "C=CCNC(=O)NC(=O)[C@@H]1CCCN1C(=O)[C@H](CC1CCCC1)CN(O)C=O", "result.type": "MIC", "number": 2}

Task: Field: MIC (Enterococcus faecalis). Entry: CC(C)OC(=O)NC(=O)[C@@H]1CCCN1C(=O)[C@H](CC1CCCC1)CN(O)C=O
Result: 4

Task: Field: MIC (Enterococcus faecalis). Entry: O=CN(O)C[C@@H](CC1CCCC1)C(=O)N1CCC[C@H]1C(=O)NC(=O)C1CC1
Result: 2

Task: Field: MIC (Enterococcus faecalis). Entry: O=CN(O)C[C@@H](CC1CCCC1)C(=O)N1CCC[C@H]1C(=O)NC(=O)NCCc1ccncc1
Result: 8

----------
Target: Peptide deformylase (Staphylococcus aureus, UniProt P68826)
Sequence (P68826 whole entry): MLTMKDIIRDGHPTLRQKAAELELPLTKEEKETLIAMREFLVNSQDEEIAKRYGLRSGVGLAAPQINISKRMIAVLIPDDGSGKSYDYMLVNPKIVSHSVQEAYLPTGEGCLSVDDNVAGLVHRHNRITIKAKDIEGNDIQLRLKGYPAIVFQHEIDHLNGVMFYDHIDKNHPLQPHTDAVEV
Assay: Inhibition of Staphylococcus aureus PDF assessed as formate release from fMAS peptide substrate after 20 mins by formate dehydrogenase coupled assay
result.type: pIC50
Convention used: pIC50 is expressed as -log10 of the molar concentration.

# count of solved cases: 5
{"molecular.string": "CC(C)(C)C(=O)NC(=O)[C@@H]1CCCN1C(=O)[C@H](CC1CCCC1)CN(O)C=O", "pIC50": 8.00}
{"molecular.string": "C=CCNC(=O)NC(=O)[C@@H]1CCCN1C(=O)[C@H](CC1CCCC1)CN(O)C=O", "pIC50": 8.00}
{"molecular.string": "O=CN(O)C[C@@H](CC1CCCC1)C(=O)N1CCC[C@H]1C(=O)NC(=O)NCCc1ccncc1", "pIC50": 8.77}
{"molecular.string": "CC(C)CC(=O)NC(=O)[C@@H]1CCCN1C(=O)[C@H](CC1CCCC1)CN(O)C=O", "pIC50": 8.40}
{"molecular.string": "NCCNC(=O)NC(=O)[C@@H]1CCCN1C(=O)[C@H](CC1CCCC1)CN(O)C=O", "pIC50": 8.64}

Task: Entry under review: CC(C)(C)NC(=O)NC(=O)[C@@H]1CCCN1C(=O)[C@H](CC1CCCC1)CN(O)C=O . Reported pIC50?
Result: 8.92

Task: Entry under review: O=CN(O)C[C@@H](CC1CCCC1)C(=O)N1CCC[C@H]1C(=O)NC(=O)NCc1ccccc1 . Reported pIC50?
Result: 8.77

Task: Entry under review: O=CN(O)C[C@@H](CC1CCCC1)C(=O)N1CCC[C@H]1C(=O)NC(=O)C1CCCCC1 . Reported pIC50?
Result: 8.43

Task: Entry under review: O=CN(O)C[C@@H](CC1CCCC1)C(=O)N1CCC[C@H]1C(=O)NC(=O)NCCc1ccccn1 . Reported pIC50?
Result: 8.85

----------
Test system: Enterococcus faecalis
Experiment: Antibacterial activity against Enterococcus faecalis 7 by broth microdilution method
Type: functional
Entries and their measured MIC follow.
Lab book: enter the figure in µg/mL, no units written.

# count of solved cases: 5
{"molecular.string": "COCC(=O)NC(=O)[C@@H]1CCCN1C(=O)[C@H](CC1CCCC1)CN(O)C=O", "number": 16}
{"molecular.string": "CC(=O)NC(=O)[C@@H]1CCCN1C(=O)[C@H](CC1CCCC1)CN(O)C=O", "number": 8}
{"molecular.string": "O=CN(O)C[C@@H](CC1CCCC1)C(=O)N1CCC[C@H]1C(=O)NC(=O)OC1CCCCC1", "number": 0.5}
{"molecular.string": "O=CN(O)C[C@@H](CC1CCCC1)C(=O)N1CCC[C@H]1C(=O)NC(=O)C1CCCC1", "number": 1}
{"molecular.string": "CCNC(=O)NC(=O)[C@@H]1CCCN1C(=O)[C@H](CC1CCCC1)CN(O)C=O", "number": 2}

Task: Entry under review: O=CN(O)C[C@@H](CC1CCCC1)C(=O)N1CCC[C@H]1C(=O)NC(=O)OC1CCCC1 . Reported MIC?
Result: 1

Task: Entry under review: CC(C)(C)OC(=O)NC(=O)[C@@H]1CCCN1C(=O)[C@H](CC1CCCC1)CN(O)C=O . Reported MIC?
Result: 1

Task: Entry under review: CNC(=O)NC(=O)[C@@H]1CCCN1C(=O)[C@H](CC1CCCC1)CN(O)C=O . Reported MIC?
Result: 4

Task: Entry under review: O=CN(O)C[C@@H](CC1CCCC1)C(=O)N1CCC[C@H]1C(=O)NC(=O)NCCc1cnccn1 . Reported MIC?
Result: 8

Task: Entry under review: COC(=O)NC(=O)[C@@H]1CCCN1C(=O)[C@H](CC1CCCC1)CN(O)C=O . Reported MIC?
Result: 4

Task: Entry under review: O=CN(O)C[C@@H](CC1CCCC1)C(=O)N1CCC[C@H]1C(=O)NC(=O)NCCc1ccccn1 . Reported MIC?
Result: 4

Task: Entry under review: CCOC(=O)NC(=O)[C@@H]1CCCN1C(=O)[C@H](CC1CCCC1)CN(O)C=O . Reported MIC?
Result: 2

Task: Entry under review: O=CN(O)C[C@@H](CC1CCCC1)C(=O)N1CCC[C@H]1C(=O)NC(=O)c1ccccc1 . Reported MIC?
Result: 1

Task: Entry under review: O=CN(O)C[C@@H](CC1CCCC1)C(=O)N1CCC[C@H]1C(=O)NC(=O)NC1CCCCC1 . Reported MIC?
Result: 2

Task: Entry under review: O=CN(O)C[C@@H](CC1CCCC1)C(=O)N1CCC[C@H]1C(=O)NC(=O)NC1CCCC1 . Reported MIC?
Result: 1

src = ChEMBL document CHEMBL2029221
